Data credit: the supplement of paper PMC10201428

tested on: VchCAST RNA-guided transposition machinery (E. coli BL21(DE3) host, lacZ target); experiment: relative integration efficiency (T-RL orientation) vs wild-type transposon end (log2 (normalized fold change)); transposon end mutated: right end (5 bp flank + 75 bp right end); higher = more efficient transposition
Categories are assigned from the measured relative integration efficiency (log2) using these intervals: one = under -1, two = from -1 up to -0.6, three = -0.6 and over

Which class does ACATTTGTTGATACAACCATAAAATGATAATTACACCCATAAATTGATAATTATCACACCCATAAATTGATATTGCCTCTGATCATATTTAATAATTAATTTATATATTTAAGTCAGGCACCGACAC fall in?
three

Which class does ACATTTGTTGATACACCCATAAATTGATATTGCCACCCATAAATTGATATTGCTCACAACCATAAGTTGATATTTTCTCTGATCATAGTCAGACCAACATTGCTACGACCCGTATTCGCACCGACAC fall in?
one

Which class does ACATTTGTTGATACAACCATTTTTTGATAATTACACCCATAAATTGATAATTATCACACCCATAAATTGATATTGCCTCTGATCATAGTCAGACCAACATTGCTACGACCCGTATTCGCACCGACAC fall in?
two

Next:
Which class does ACATTTGTTGATACAACCAAAAAATGATAATTACACCCAAAAATTGATAATTATCACACCCAAAAATTGATATTGCCTCTGATCATAGTCAGACCAACATTGCTACGACCCGTATTCGCACCGACAC fall in?
two

Which class does ACATTTGTTGATACAACCATAAAATGATAATTACACCCATAAATTGATAATTATCACACCCATAAATTGATATTGCCTCTGATAACTTCGTATAGTATACCTTATACGAAGTTATTCGCACCGACAC fall in?
two

Which class does ACATTTGTAAAAACAACCATAAAATGATAATTACACCCATAAATTGATAATTATCACACCCATAAATTGATATTGCCTCTGATCATAGTCAGACCAACATTGCTACGACCCGTATTCGCACCGACAC fall in?
three
